Listed compounds paired with reported inhibition at 0.001 µM
# Target Desc: T1, COX-2 (Homo sapiens, UniProt P35354)
# T1 construct: purchased BioVision (Milpitas, CA, USA) K547-100
# T1 sequence (P35354 18-604): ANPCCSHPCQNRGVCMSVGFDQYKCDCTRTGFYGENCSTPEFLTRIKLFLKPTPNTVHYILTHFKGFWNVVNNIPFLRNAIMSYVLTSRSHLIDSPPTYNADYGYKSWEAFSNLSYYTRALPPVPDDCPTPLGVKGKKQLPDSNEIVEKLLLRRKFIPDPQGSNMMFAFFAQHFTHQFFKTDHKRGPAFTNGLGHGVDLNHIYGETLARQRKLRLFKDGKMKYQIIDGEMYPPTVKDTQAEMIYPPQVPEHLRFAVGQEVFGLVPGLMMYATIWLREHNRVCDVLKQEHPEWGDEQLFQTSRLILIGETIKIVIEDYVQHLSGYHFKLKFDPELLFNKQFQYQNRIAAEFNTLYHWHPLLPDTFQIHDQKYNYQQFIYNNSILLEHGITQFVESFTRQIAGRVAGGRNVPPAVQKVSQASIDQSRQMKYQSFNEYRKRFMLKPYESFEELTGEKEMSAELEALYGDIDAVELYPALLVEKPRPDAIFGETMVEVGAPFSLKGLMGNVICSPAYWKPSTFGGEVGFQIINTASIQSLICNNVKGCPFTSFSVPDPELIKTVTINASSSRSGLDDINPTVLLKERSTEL
# Experimental Protocol: Fluorimetric COX-2 inhibition screening kit (BioVision)
# Type: biochemical
# Measurement Conditions: 10^−9 M
# Method: Inhibitory potency of the compounds on COX-1 and COX-2 enzymes was determined by using fluorimetric COX-1 and COX-2 inhibition screening kits from BioVision (Milpitas, CA, USA). […] Fluorescence intensities of the samples were kinetically measured at 25 °C for 5–10 min by monitoring emissions at 587 nm after excitation at 535 nm. Two appropriate points (T1 and T2) in the linear range of the plot were chosen and the corresponding fluorescence values (RFU1 and RFU2) were obtained. […]

>  <Test Smiles>
CCOc1ccc(-c2nc3ccccc3n2CCN2CCOCC2)cc1

>  <Unit Info>
%

>  <inhibition at 0.001 µM>
20.5

$$$$
>  <Test Smiles>
COc1ccc(-c2nc3ccccc3n2CCN2CCOCC2)cc1

>  <Unit Info>
%

>  <inhibition at 0.001 µM>
21.4

$$$$
>  <Test Smiles>
FC(F)(F)Oc1ccc(-c2nc3ccccc3n2CCN2CCOCC2)cc1

>  <Unit Info>
%

>  <inhibition at 0.001 µM>
22.3

$$$$
>  <Test Smiles>
CCN(CC)c1ccc(-c2nc3ccccc3n2CCN2CCOCC2)cc1

>  <Unit Info>
%

>  <inhibition at 0.001 µM>
23

$$$$
>  <Test Smiles>
c1ccc(COc2ccc(-c3nc4ccccc4n3CCN3CCOCC3)cc2)cc1

>  <Unit Info>
%

>  <inhibition at 0.001 µM>
28.7

$$$$
>  <Test Smiles>
Cc1ccc(-c2nc3ccccc3n2CCN2CCOCC2)cc1

>  <Unit Info>
%

>  <inhibition at 0.001 µM>
32.4

$$$$
